- experimental.target: Human PPAR-α (Homo sapiens)
- Sequence (Q07869 239-466 limits assumed): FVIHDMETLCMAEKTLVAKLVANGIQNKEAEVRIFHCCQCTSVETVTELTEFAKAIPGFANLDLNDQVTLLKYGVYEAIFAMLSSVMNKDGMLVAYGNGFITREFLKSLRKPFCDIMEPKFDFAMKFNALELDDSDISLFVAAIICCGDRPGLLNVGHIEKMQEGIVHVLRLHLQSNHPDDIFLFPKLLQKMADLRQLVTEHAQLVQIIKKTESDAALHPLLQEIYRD
- assay.comment: transactivation assay (GAL4 chimeric receptor, luciferase) in CV-1 cells
- condition.parameters: CV-1 cells, GAL4 chimeric receptor, 24 hours
quantity.measured: EC50 (µM)
Dear colleague, please return just the value in µM, with no unit written.

query.smiles	recorded.number
CCO[C@@H](Cc1ccc(OCc2sc(-c3ccc(C4=Nc5ccccc5OC4)cc3)cc2C)cc1)C(=O)O	2.01
CCO[C@@H](Cc1ccc(OCc2sc(-c3ccc(-c4noc(C)n4)cc3)cc2C)cc1)C(=O)O	5.24
CCO[C@@H](Cc1ccc(OCc2sc(-c3ccc(C(=O)N4CCOCC4)cc3)cc2C)cc1)C(=O)O	3.21
CCO[C@@H](Cc1ccc(OCc2sc(-c3ccc(C4=NCCCO4)cc3)cc2C)cc1)C(=O)O	6.57
CCO[C@@H](Cc1ccc(OCc2sc(-c3ccc(-c4cc(C(=O)NC)no4)cc3)cc2C)cc1)C(=O)O	5.14

Provide one value: measured EC50 of CCO[C@@H](Cc1ccc(OCc2sc(-c3ccc(-c4cc(COC)on4)cc3)cc2C)cc1)C(=O)O 2.3

Provide one value: measured EC50 of CCO[C@@H](Cc1ccc(OCc2sc(-c3ccc(-c4nnn(C(C)C)n4)cc3)cc2C)cc1)C(=O)O 0.478

###

- experimental.target: Human PPAR-γ (Homo sapiens, UniProt P37231)
- Construct: expressed in transfected cells; host or cells: CV-1 (CCL-70, ATCC)
- Sequence (P37231 238-503 limits assumed): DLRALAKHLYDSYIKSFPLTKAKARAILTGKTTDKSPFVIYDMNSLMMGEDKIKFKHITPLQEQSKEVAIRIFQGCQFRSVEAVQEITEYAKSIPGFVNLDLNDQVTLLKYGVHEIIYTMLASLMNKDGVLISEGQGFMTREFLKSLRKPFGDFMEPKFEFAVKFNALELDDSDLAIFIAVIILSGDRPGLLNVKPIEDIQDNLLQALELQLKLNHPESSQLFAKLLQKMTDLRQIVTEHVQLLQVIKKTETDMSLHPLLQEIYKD
- assay.comment: transactivation assay (GAL4 chimeric receptor, luciferase) in CV-1 cells
- Type: cell-based
- condition.parameters: CV-1; Relative Response % to maximum effects of the positive control drug; read-out: Max % Human PPAR-γ
Label scheme, based on Emax: lower band: < 30%; central band: ≥ 30% and < 50%; upper band: ≥ 50%

Use these answered entries as a reference point.
compound	qualitative.label
CCO[C@@H](Cc1ccc(OCc2sc(-c3ccc(-c4nnn(COC)n4)cc3)cc2C)cc1)C(=O)O [Example 32]	central band
CCO[C@@H](Cc1ccc(OCc2sc(-c3ccc(-c4nnn(C(C)C)n4)cc3)cc2C)cc1)C(=O)O [Example 31]	lower band
CCO[C@@H](Cc1ccc(OCc2sc(-c3ccc(C4=Nc5ccccc5OC4)cc3)cc2C)cc1)C(=O)O [Example 23]	upper band
CCO[C@@H](Cc1ccc(OCc2sc(-c3ccc(C4=NCCCO4)cc3)cc2C)cc1)C(=O)O [Example 19]	central band

Please classify: CCO[C@@H](Cc1ccc(OCc2sc(-c3ccc(-c4noc(C)n4)cc3)cc2C)cc1)C(=O)O [Example 25] central band

Please classify: CCO[C@@H](Cc1ccc(OCc2sc(-c3ccc(-c4csnn4)cc3)cc2C)cc1)C(=O)O [Example 24] central band

Please classify: CCO[C@@H](Cc1ccc(OCc2sc(-c3ccc(-c4cc(C(C)(C)C)on4)cc3)cc2C)cc1)C(=O)O [Example 48] lower band

Please classify: CCO[C@@H](Cc1ccc(OCc2sc(-c3ccc(-c4cc(C(=O)NC)no4)cc3)cc2C)cc1)C(=O)O [Example 38] upper band

Please classify: CCO[C@@H](Cc1ccc(OCc2sc(-c3ccc(-c4csc(C)n4)cc3)cc2C)cc1)C(=O)O [Example 21] lower band

Please classify: CCO[C@@H](Cc1ccc(OCc2sc(-c3ccc(C(=O)N4CCOCC4)cc3)cc2C)cc1)C(=O)O [Example 17] central band

Please classify: CCO[C@@H](Cc1ccc(OCc2sc(-c3ccc(-c4nc(C)c(C)o4)cc3)cc2C)cc1)C(=O)O [Example 34] upper band

Please classify: CCO[C@@H](Cc1ccc(OCc2sc(-c3ccc(-c4nnn(C)n4)cc3)cc2C)cc1)C(=O)O [Example 29] upper band

Please classify: CCO[C@@H](Cc1ccc(OCc2sc(-c3ccc(-c4cc(COC)no4)cc3)cc2C)cc1)C(=O)O [Example 40] central band

Please classify: CCO[C@@H](Cc1ccc(OCc2sc(-c3ccc(-c4cc(COC)on4)cc3)cc2C)cc1)C(=O)O [Example 36] central band

###

Attribute: log10 of EC50
- experimental.target: Human PPAR-γ (Homo sapiens, UniProt P37231)
- assay.comment: transactivation assay (GAL4 chimeric receptor, luciferase) in CV-1 cells
- condition.parameters: CV-1 cells, GAL4 chimeric receptor, 24 hours
# values: log10(EC50), units nM

Observe how each entry below is paired with its result.
query.smiles	log10 of EC50
CCO[C@@H](Cc1ccc(OCc2sc(-c3ccc(-c4nnn(C)n4)cc3)cc2C)cc1)C(=O)O	1.69
CCO[C@@H](Cc1ccc(OCc2sc(-c3ccc(-c4noc(C)n4)cc3)cc2C)cc1)C(=O)O	1.98
CCO[C@@H](Cc1ccc(OCc2sc(-c3ccc(C4=NCCCO4)cc3)cc2C)cc1)C(=O)O	1.65
CCO[C@@H](Cc1ccc(OCc2sc(-c3ccc(-c4nnn(COC)n4)cc3)cc2C)cc1)C(=O)O	2.05
CCO[C@@H](Cc1ccc(OCc2sc(-c3ccc(-c4csc(C)n4)cc3)cc2C)cc1)C(=O)O	2.67

Provide one value: measured log10 of EC50 of CCO[C@@H](Cc1ccc(OCc2sc(-c3ccc(C(=O)N4CCOCC4)cc3)cc2C)cc1)C(=O)O 3.10

Provide one value: measured log10 of EC50 of CCO[C@@H](Cc1ccc(OCc2sc(-c3ccc(-c4cc(C)no4)cc3)cc2C)cc1)C(=O)O 1.79

###

- experimental.target: Mouse PPAR-γ (Mus musculus, UniProt P37238)
- Sequence (P37238 238-503 limits assumed): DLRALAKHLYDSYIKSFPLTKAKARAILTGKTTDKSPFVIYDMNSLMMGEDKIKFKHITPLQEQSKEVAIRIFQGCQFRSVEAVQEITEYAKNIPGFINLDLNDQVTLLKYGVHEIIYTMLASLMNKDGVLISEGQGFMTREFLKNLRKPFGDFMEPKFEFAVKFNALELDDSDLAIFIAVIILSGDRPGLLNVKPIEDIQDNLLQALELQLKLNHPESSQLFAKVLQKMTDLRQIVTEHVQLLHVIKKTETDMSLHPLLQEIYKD
- assay.comment: transactivation assay (GAL4 chimeric receptor, luciferase) in CV-1 cells
- condition.parameters: CV-1 cells, GAL4 chimeric receptor, 24 hours
quantity.measured: EC50 (nM)
Dear colleague, please return just the value in nM, with no unit written.

compound	experimental.target	EC50 / nM
CCO[C@@H](Cc1ccc(OCc2sc(-c3ccc(-c4nc(C)c(C)o4)cc3)cc2C)cc1)C(=O)O [Example 34]	Mouse PPAR-γ (Mus musculus, UniProt P37238)	176
CCO[C@@H](Cc1ccc(OCc2sc(-c3ccc(-c4nnn(C(C)C)n4)cc3)cc2C)cc1)C(=O)O [Example 31]	Mouse PPAR-γ (Mus musculus, UniProt P37238)	57

Provide one value: measured EC50 of CCO[C@@H](Cc1ccc(OCc2sc(-c3ccc(-c4cc(C)no4)cc3)cc2C)cc1)C(=O)O [Example 41] 142

Provide one value: measured EC50 of CCO[C@@H](Cc1ccc(OCc2sc(-c3ccc(-c4cc(COC)on4)cc3)cc2C)cc1)C(=O)O [Example 36] 354

Provide one value: measured EC50 of CCO[C@@H](Cc1ccc(OCc2sc(-c3ccc(-c4csnn4)cc3)cc2C)cc1)C(=O)O [Example 24] 84

Provide one value: measured EC50 of CCO[C@@H](Cc1ccc(OCc2sc(-c3ccc(C4=Nc5ccccc5OC4)cc3)cc2C)cc1)C(=O)O [Example 23] 165

Provide one value: measured EC50 of CCO[C@@H](Cc1ccc(OCc2sc(-c3ccc(-c4cc(C(C)(C)C)on4)cc3)cc2C)cc1)C(=O)O [Example 48] 31

Provide one value: measured EC50 of CCO[C@@H](Cc1ccc(OCc2sc(-c3ccc(-c4nnn(C)n4)cc3)cc2C)cc1)C(=O)O [Example 29] 118

Provide one value: measured EC50 of CCO[C@@H](Cc1ccc(OCc2sc(-c3ccc(-c4cc(C(=O)NC)no4)cc3)cc2C)cc1)C(=O)O [Example 38] 180

Provide one value: measured EC50 of CCO[C@@H](Cc1ccc(OCc2sc(-c3ccc(-c4cc(COC)no4)cc3)cc2C)cc1)C(=O)O [Example 40] 109

Provide one value: measured EC50 of CCO[C@@H](Cc1ccc(OCc2sc(-c3ccc(C(=O)N4CCOCC4)cc3)cc2C)cc1)C(=O)O [Example 17] 14500

Provide one value: measured EC50 of CCO[C@@H](Cc1ccc(OCc2sc(-c3ccc(-c4cc(C)no4)cc3)nc2C)cc1)C(=O)O [Example 47] 208

Provide one value: measured EC50 of CCO[C@@H](Cc1ccc(OCc2sc(-c3ccc(-c4csc(C)n4)cc3)cc2C)cc1)C(=O)O [Example 21] 883

Provide one value: measured EC50 of CCO[C@@H](Cc1ccc(OCc2sc(-c3ccc(-c4noc(C)n4)cc3)cc2C)cc1)C(=O)O [Example 25] 295

Provide one value: measured EC50 of CCO[C@@H](Cc1ccc(OCc2sc(-c3ccc(-c4nnn(COC)n4)cc3)cc2C)cc1)C(=O)O [Example 32] 322

Provide one value: measured EC50 of CCO[C@@H](Cc1ccc(OCc2sc(-c3ccc(C4=NCCCO4)cc3)cc2C)cc1)C(=O)O [Example 19] 281

###

- experimental.target: Human PPAR-α (Homo sapiens)
- Construct: expressed in transfected cells; host or cells: CV-1 (CCL-70, ATCC)
- assay.comment: transactivation assay (GAL4 chimeric receptor, luciferase) in CV-1 cells
- Format: cell-based
- condition.parameters: CV-1; Relative Response % to maximum effects of the positive control drug; read-out: Max % Human PPAR-α
quantity.measured: Emax (%)
Dear colleague, please return just the value in %, with no unit written.

Observe how each entry below is paired with its result.
query.smiles	unit.of.measure	recorded.number
CCO[C@@H](Cc1ccc(OCc2sc(-c3ccc(-c4csnn4)cc3)cc2C)cc1)C(=O)O	%	19
CCO[C@@H](Cc1ccc(OCc2sc(-c3ccc(-c4csc(C)n4)cc3)cc2C)cc1)C(=O)O	%	0
CCO[C@@H](Cc1ccc(OCc2sc(-c3ccc(-c4cc(COC)no4)cc3)cc2C)cc1)C(=O)O	%	7

Next molecule, Emax to be filled in.
Provide one value: measured Emax of CCO[C@@H](Cc1ccc(OCc2sc(-c3ccc(-c4cc(C(=O)NC)no4)cc3)cc2C)cc1)C(=O)O 51
